B1: HDV Ribozyme (parent)
chain: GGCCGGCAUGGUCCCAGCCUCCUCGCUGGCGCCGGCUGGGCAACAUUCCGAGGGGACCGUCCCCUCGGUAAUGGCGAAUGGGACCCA

Variants of: B1
Test: self-cleavage, relative activity (ratio to wild type); higher = more cleavage; co-transcriptional
Kindly note that classification relies on self-cleavage with these boundaries: low range (below 0.1), mid range (0.1 to below 0.2), high range (0.2 or more)

GGCCGGCAUGGUCCAAGCCUCCUCGCUGGCGCCGGCUGGGCAACAUUCCGAGGGGACCGUCCCCUCGGUAAUGGCGAAUGGGAGCCA; high range

Field: class (self-cleavage) — entry: GGCCGGCAUGGUCCCAGCCUCCUCGCUGGCGCCGGCUGGGCAACAUUCCGAGGGGACCGUCCCCUCGGUAAUGGCGAAUAGGACGCA
high range

Field: class (self-cleavage) — entry: GGCCGGCAUGGUCCCAGCCUCCUCGCUGGCGCGGGCUGGGAAACAUUCCGAGGGGACCGUCCCCUCGGUAAUGGCGAAUGGGACCCA
mid range

Field: class (self-cleavage) — entry: GGCCGGCAUGGUCCCAGCCUCCUCGCUGGCGCCGGCUGGGCAACAUUCCGAGGGGACCGUCCCCUCUGUAAUGGCGAAUGGGACUCA
high range

Field: class (self-cleavage) — entry: GGCCGGCAUGGUCCCAUCCUCCUUGCUGGCGCCGGCUGGGCAACAUUCCGAGGGGACCGUCCCCUCGGUAAUGGCGAAUGGGACCCA
mid range

Field: class (self-cleavage) — entry: GGUCGGCAUGGUCCCAGCCUCCUCGCUGGCGCUGGCUGGGCAACAUUCCGAGGGGACCGUCCCCUCGGUAAUGGCGAAUGGGACCCA
high range

Field: class (self-cleavage) — entry: GACCGGCAUGGUCCCAGCCUCCUCGCUGGCGCCGGCUGGGCAACAUACCGAGGGGACCGUCCCCUCGGUAAUGGCGAAUGGGACCCA
low range

Field: class (self-cleavage) — entry: GGCCGGCAUGGUCCCAGCCUCCUCGCUGUCGCCGGCUGGGCAACAUUCCGAGGGGACCGUCCCCUCGGUAAUGGCGACUGGGACCCA
low range

Field: class (self-cleavage) — entry: GGCCGGCAUGGUCCCAGCCUCCUCGCUGGCGCCGGCUGGGCAAUAUUCCGAGGGGACCGUCCCCUCGGUAAUGGCGAUUGGGACCCA
mid range

Field: class (self-cleavage) — entry: GCCCGGCAUGGUCCCAGCCUCCUCGCUGGCGCCGGCUGGGCAACAUUCCGAGGGGACCGUCCCCUCGGUAAUGGCGAAUGAGACCCA
low range

Field: class (self-cleavage) — entry: GGCCGGCAUGGUCCGAGCCUCCUCGCUGGCGCCGGCUGGGCAACAUUCCGAGGGGACCGUCCCCUCGGUAAGGGCGAAUGGGACCCA
mid range

The origin of these recorded values is the RNAGym collection of RNA variant scans (doi:10.7554/elife.80360).
